Entries and their koff
Target: T1, Soluble heterodimeric CD3 protein (hCD3-epsilon/hCD3-delta) with either a human Fc tag (hFcΔAdp/hFc) or a … (human, UniProt P07766 23-126; P04234 22-105)
T1 construct: also called hCD3ε/δ; not shown: Fc tag: human (hFcΔAdp/hFc)
T1 sequence (P07766 23-126 limits assumed, stated change not applied, chain 1 of 2): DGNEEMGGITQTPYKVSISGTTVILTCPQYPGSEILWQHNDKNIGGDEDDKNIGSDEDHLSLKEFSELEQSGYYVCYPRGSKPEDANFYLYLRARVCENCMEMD
T1 sequence (P04234 22-105 limits assumed, stated change not applied, chain 2 of 2): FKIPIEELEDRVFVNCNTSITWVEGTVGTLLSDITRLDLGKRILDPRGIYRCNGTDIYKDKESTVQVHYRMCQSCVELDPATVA
Assay: SPR Biacore 25C antigen-capture

binder | koff
H1M2692N (antibody, mouse IgG1, V domains shown, H1M: mouse IgG1 Fc, human variable regions; divalent) VH: EVQLVESGGGLVQPGGSLRLSCAASGFSFDDYTMHWVRQPPGKGLEWVSGISWNSGSIGYADSVKGRFTISRDNAKNSLYLQMNSLRAGDTALYYCAKDNSGYGYYYYYGMDVWGQGTTVTVSS VL: EIVMTQSPATLSVSPGERATLSCRASQSVSSNLAWYQQKPGQAPRLLIYGASTRATGIPARFSGSGSGTEFTLTISSLQSEDFAVYYCQQYYNWPLTFGGGTKVEIK | 9.9e-06 s⁻¹
H2M3543N (antibody, mouse IgG2, V domains shown, H2M: mouse IgG2 Fc, human variable regions; divalent) VH: EVQLVESGGGLVQPGRSLRLSCAASGFTFDDYTMHWVRQAPGKGLEWVSDISWNSGSIGYADSVKGRFTVSRDNAKNSLYLQMNSLRGEDTALYYCAKDMSGYAHYGYYGMDVWGQGTTVTVSS VL: DIQMTQSPSSLSASVGDRVTITCRASQSIRNYLNWYQQKPGKVPKLLIYAASSLQSGVPSRFSGSGSGTDFTLTISSLQPEDFATYYCQQSYSNPPITFGQGTRLEIK | 7.96e-05 s⁻¹
H1H5771P (antibody, human IgG1, V domains shown, H1H: human IgG1 Fc; divalent) VH: EVQLVESGGGLVQPGRSLRLSCAASGFSFDNYAMHWVRQAPGQGLEWVSGISWNSGSRDYADSVKGRFTISRDNARNSLFLQMNSLSNEDTAMYYCAKDKSGYGSYFYGMDVWGQGTTVTVSS VL: EIVLTQSPGTLSLSPGDRATLSCRASQSIRNIYLAWYQQKPGQAPRLLIHGASTRATGIPDRFSGSGSGTDFTLTISRLEPEDFAVYYCQQRVSLPYTFGQGTKLEIK | 0.000342 s⁻¹
